Exercise: for every item that follows, state its recorded MIC.
# Tested on: Cryptococcus neoformans
# ASSAY OVERVIEW: Antimicrobial activity against Cryptococcus neoformans after 72 hrs by microbroth dilution method
# Assay type: functional
Give bare numbers, in µg/mL.

In the examples that follow, each entry is paired with its recorded MIC.
CC(C)CCO[C@@H]1C=CC(=O)[C@@H](Cn2cc(CCBr)nn2)O1 : 12.5
CC(C)CCO[C@@H]1C=CC(=O)[C@@H](Cn2cc(CCCCl)nn2)O1 : 50
CC(C)CCO[C@@H]1C=CC(=O)[C@@H](Cn2cc(C(C)(C)C)nn2)O1 : 25
OC(Cn1cncn1)(Cn1cncn1)c1ccc(F)cc1F [FLUCONAZOLE] : 2

Now consider the entry below.
In: Which MIC is reported for this compound? CC(C)CCO[C@@H]1C=CC(=O)[C@@H](Cn2cc(COCC34CC5CC(CC(C5)C3)C4)nn2)O1
Out: 50

====

# System: L929
# ASSAY OVERVIEW: Cytotoxicity against mouse L929 cells assessed as change in morphology at MIC after 24 hrs using Giemsa staining by phase contrast microscopy
# Format: cell-based
# CONDITION INFO: l929, 24 h
MEASUREMENT KIND: Activity

The examples below pair each entry with its known result.
CC(C)CCO[C@@H]1C=CC(=O)[C@@H](Cn2cc(C=O)nn2)O1 : Non-toxic
CC(C)CCO[C@@H]1C=CC(=O)[C@@H](Cn2cc(-c3ccc(F)cc3)nn2)O1 : Non-toxic
CCCCCc1cn(C[C@H]2O[C@H](OCCC(C)C)C=CC2=O)nn1 : Non-toxic
CC(C)CCO[C@@H]1C=CC(=O)[C@@H](Cn2cc(COCC34CC5CC(CC(C5)C3)C4)nn2)O1 : Non-toxic
CC(C)CCO[C@@H]1C=CC(=O)[C@@H](Cn2cc(-c3ccccc3)nn2)O1 : Non-toxic

# batch size: 6; output Activity per entry
1. CCCCCCc1cn(C[C@H]2O[C@H](OCCC(C)C)C=CC2=O)nn1
2. CCCCO[C@@H]1C=CC(=O)[C@@H](Cn2cc(CCCCl)nn2)O1
3. CCCCCCCCc1cn(C[C@H]2O[C@H](OCCC(C)C)C=CC2=O)nn1
4. CCCCCCCCc1cnnn1C[C@H]1O[C@H](OCCC(C)C)C=CC1=O
5. CC(C)CCO[C@@H]1C=CC(=O)[C@@H](Cn2cc(C(C)(C)C)nn2)O1
6. CC(C)CCO[C@@H]1C=CC(=O)[C@@H](Cn2cc(CCCCl)nn2)O1

Out:
1: Non-toxic; 2: Non-toxic; 3: Non-toxic; 4: Non-toxic; 5: Non-toxic; 6: Non-toxic

====

# Test system: Aspergillus fumigatus
# ASSAY OVERVIEW: Antimicrobial activity against Aspergillus fumigatus after 72 hrs by microbroth dilution method
# Assay type: functional
MEASUREMENT KIND: MIC

CC(C)CCO[C@@H]1C=CC(=O)[C@@H](Cn2cc(-c3ccc(F)cc3)nn2)O1 : 50 µg/mL
CC(C)CCO[C@@H]1C=CC(=O)[C@@H](Cn2cc(CCCC=O)nn2)O1 : > 50 µg/mL
CC(C)CCO[C@@H]1C=CC(=O)[C@@H](Cn2cc(C(C)(C)C)nn2)O1 : > 50 µg/mL

Parameters: items (list). Returns: MIC for each item.
1. CC(C)CCO[C@@H]1C=CC(=O)[C@@H](Cn2cc(CCn3cc(C4CC4)nn3)nn2)O1
2. CCCCCCCCc1cnnn1C[C@H]1O[C@H](OCCC(C)C)C=CC1=O
3. CCCCCCCCc1cn(C[C@H]2O[C@H](OCCC(C)C)C=CC2=O)nn1
4. CC(C)CCO[C@@H]1C=CC(=O)[C@@H](Cn2cc(COCC34CC5CC(CC(C5)C3)C4)nn2)O1
5. CCCCCc1cn(C[C@H]2O[C@H](OCCC(C)C)C=CC2=O)nn1
6. CCCCO[C@@H]1C=CC(=O)[C@@H](Cn2cc(CCCCl)nn2)O1

Out:
["> 50 µg/mL", "> 50 µg/mL", "> 50 µg/mL", "1.56 µg/mL", "> 50 µg/mL", "> 50 µg/mL"]

In: Look at this compound and give its reported MIC. CC(C)CCO[C@@H]1C=CC(=O)[C@@H](Cn2cc(C3CCCC3)nn2)O1
Out: 50 µg/mL

====

# Test system: Cryptococcus neoformans
# ASSAY OVERVIEW: Antimicrobial activity against Cryptococcus neoformans after 72 hrs by microbroth dilution method
# Type: functional
Task for the reader: assign each of the following compounds its reported MIC.
Give bare numbers, in µg/mL.

Nc1nc(=O)[nH]cc1F : 0.13

Give measured MIC for every item shown.
1. CC(C)CCO[C@@H]1C=CC(=O)[C@@H](Cn2ccnn2)O1
2. CCCCCCCCc1cn(C[C@H]2O[C@H](OCCCC)C=CC2=O)nn1
3. CCCCCCCCc1cnnn1C[C@H]1O[C@H](OCCC(C)C)C=CC1=O
4. CC(C)CCO[C@@H]1C=CC(=O)[C@@H](Cn2cc(C3CCCC3)nn2)O1

Out:
[50, 25, 25, 50]

Report MIC for every entry below.
1. CC(C)CCO[C@@H]1C=CC(=O)[C@@H](Cn2cc(C=O)nn2)O1
2. Clc1ccccc1C(c1ccccc1)(c1ccccc1)n1ccnc1
3. CC(C)CCO[C@@H]1C=CC(=O)[C@@H](Cn2cc(CCn3cc(-c4ccccc4)nn3)nn2)O1

Out:
1. 50
2. 0.25
3. 50

====

# Tested on: Escherichia coli
# ASSAY OVERVIEW: Antimicrobial activity against Escherichia coli ATCC 9637 after 24 hrs by microbroth dilution method
# Format: functional
# CONDITION INFO: ATCC 9637, 24 h
MEASUREMENT KIND: MIC

Here are 8 molecules together with their reported answers.
CCCCCCCCc1cnnn1C[C@H]1O[C@H](OCCC(C)C)C=CC1=O : > 50 mg/L
CC(C)CCO[C@@H]1C=CC(=O)[C@@H](Cn2cc(CCCN3C(=O)c4ccccc4C3=O)nn2)O1 : > 50 mg/L
CC(C)CCO[C@@H]1C=CC(=O)[C@@H](Cn2cc(CCn3cc(C4CC4)nn3)nn2)O1 : > 50 mg/L
CC(C)CCO[C@@H]1C=CC(=O)[C@@H](Cn2cc(CCCCl)nn2)O1 : 50 mg/L
CN[C@@H]1[C@@H](O)[C@@H](O[C@@H]2[C@@H](O)[C@H](O[C@H]3O[C@H]([C@@H](C)NC)CC[C@H]3N)[C@@H](N)C[C@H]2N)OC[C@]1(C)O [GENTAMICIN C1] : 1.56 mg/L
CCCCCCCCc1cn(C[C@H]2O[C@H](OCCC(C)C)C=C[C@@H]2O)nn1 : > 50 mg/L
CC(C)CCO[C@@H]1C=CC(=O)[C@@H](Cn2cc(-c3ccccc3)nn2)O1 : 50 mg/L
CCCCCc1cn(C[C@H]2O[C@H](OCCC(C)C)C=CC2=O)nn1 : > 50 mg/L

In: Would you kindly share the measured MIC for CC(C)CCO[C@@H]1C=CC(=O)[C@@H](Cn2cc(CCBr)nn2)O1 ?
Out: > 50 mg/L

====

# Test system: Aspergillus fumigatus
# ASSAY OVERVIEW: Antimicrobial activity against Aspergillus fumigatus after 72 hrs by microbroth dilution method
# Type: functional
MEASUREMENT KIND: MIC

CC(C)CCO[C@@H]1C=CC(=O)[C@@H](Cn2cc(-c3ccccn3)nn2)O1 : > 50 µg/mL
CC(C)CCO[C@@H]1C=CC(=O)[C@@H](Cn2cc(C3CC3)nn2)O1 : > 50 µg/mL
CC(C)CCO[C@@H]1C=CC(=O)[C@@H](Cn2cc(CCn3cc(-c4ccccc4)nn3)nn2)O1 : > 50 µg/mL
Clc1ccccc1C(c1ccccc1)(c1ccccc1)n1ccnc1 : 8 µg/mL

Hey, can you go through the list below and give me MIC for every item?
1. CCCCCCc1cn(C[C@H]2O[C@H](OCCC(C)C)C=CC2=O)nn1
2. CC(C)CCO[C@@H]1C=CC(=O)[C@@H](Cn2cc(C=O)nn2)O1

Out:
> 50 µg/mL
25 µg/mL

====

# System: Escherichia coli
# ASSAY OVERVIEW: Antimicrobial activity against Escherichia coli ATCC 9637 after 24 hrs by microbroth dilution method
# Format: functional
# CONDITION INFO: ATCC 9637, 24 h
MEASUREMENT KIND: MIC

Solved entries (count: 4):
COc1cccc(OC)c1C(=O)N[C@@H]1C(=O)N2[C@@H]1SC(C)(C)[C@@H]2C(=O)O : 50 µg/mL
CCCCO[C@@H]1C=CC(=O)[C@@H](Cn2cc(CCCCl)nn2)O1 : > 50 µg/mL
CC1(C)S[C@@H]2[C@H](NC(=O)[C@H](N)c3ccccc3)C(=O)N2[C@H]1C(=O)O : 50 µg/mL
CC(C)CCO[C@@H]1C=CC(=O)[C@@H](Cn2cc(-c3ccccn3)nn2)O1 : > 50 µg/mL

Batch request: MIC per item, same order as input.
1. CC(C)CCO[C@@H]1C=CC(=O)[C@@H](Cn2ccnn2)O1
2. CC(C)CCO[C@@H]1C=CC(=O)[C@@H](Cn2cc(CCCC=O)nn2)O1
3. CCCCCCCCc1cn(C[C@H]2O[C@H](OCCC(C)C)C=CC2=O)nn1
4. CC(C)CCO[C@@H]1C=CC(=O)[C@@H](Cn2cc(CCn3cc(-c4ccccc4)nn3)nn2)O1
5. CC(C)CCO[C@@H]1C=CC(=O)[C@@H](Cn2cc(-c3ccc(F)cc3)nn2)O1

Out:
50 µg/mL
> 50 µg/mL
> 50 µg/mL
> 50 µg/mL
> 50 µg/mL

meta.source: ChEMBL document CHEMBL3286335
